assayed.system: UniProtKB O55234
pIC50: −log10 of the molar value.
pIC50 reference
measure.name: pIC50

1) CCCCCCC/C=C/C=C/C(=O)N[C@H](C(=O)N[C@H]1CCCCNC(=O)/C=C/[C@H](C)NC1=O)[C@@H](C)O; 7.49
2) CCCCCCC/C=C/C=C/C(=O)N[C@H](C(=O)N[C@H]1C[C@@H](O)CCNC(=O)/C=C/[C@H](C)NC1=O)[C@@H](C)O; 9.19

----------
assayed.system: β5 of human 20S constitutive proteasome (CP) (Homo sapiens)
pIC50: −log10 of the molar value.
measure.name: pIC50

1) CCCCCCC/C=C/C=C/C(=O)N[C@H](C(=O)N[C@H]1C[C@@H](O)CCNC(=O)/C=C/[C@H](C)NC1=O)[C@@H](C)O [GlbA, glidobactin A]; 8.44
2) CCCCCCC/C=C/C=C/C(=O)N[C@H](C(=O)N[C@H]1CCCCNC(=O)/C=C/[C@H](C)NC1=O)[C@@H](C)O [LumA, luminmycin A]; 7.41

----------
Heads up, these compounds all have IC50 values measured for β5i of human 20S immunoproteasome (IP) (Homo sapiens, UniProt P28062).
measure.name: IC50 (nM)

1) CCCCCCC/C=C/C=C/C(=O)N[C@H](C(=O)N[C@H]1CCCCNC(=O)/C=C/[C@H](C)NC1=O)[C@@H](C)O [LumA, luminmycin A]; 1600
2) CCCCCCC/C=C/C=C/C(=O)N[C@H](C(=O)N[C@H]1C[C@@H](O)CCNC(=O)/C=C/[C@H](C)NC1=O)[C@@H](C)O [GlbA, glidobactin A]; 25
